System: SF-295 CNS
assay: NCI-60 one-dose screen, 48 h
condition.info: 10 µM unless noted
Procedure: Cells are grown in 96 well plates and exposed to the test compound for 48 hours. Compounds are tested at a single concentration, which is 10^-5 M for most compounds. The reported endpoint is percent growth (GI% or GIPRCNT), where numbers from 0 - 100% represent growth inhibition, and numbers from -100% - 0 represent cell death. For example, a value of 40 represents 60% growth inhibition. A value of 0 means no net growth occurred over the course of the experiment. […]
The panel holds about 83,000 compounds, 20% with a hit somewhere; the sample as a whole holds those more often. Calls of active or inactive are those of the source. The calls were made as follows: active = growth percent below 10; inactive = the rest.
Response enum: class 1 (active), class 0 (inactive)

A selection of reference data follows.
Oc1ccc(C(c2ccc(O)cc2)C(Cl)(Cl)Cl)cc1: class 0
C=CCN(/C=C1/C(=O)O[C@H](COC)[C@@]2(C)C1=C(O)C(=O)C1=C2[C@H](OC(C)=O)C[C@]2(C)C(=O)CC[C@@H]12)CC=C: class 1
CC1(C=O)NC(=O)NC1=O (configuration not stated): class 0

Consider the record given below.
Prompt: I would be grateful if you could indicate the recorded call for COc1cc(OC)c(C(=O)/C=C/c2cc3c(cc2OCc2ccccc2)OC(C)(C)CC3)cc1CC=C(C)C .
Completion: class 0

---

Test system: HS 578T breast
assay: NCI-60 one-dose screen, 48 h (100 = growth as untreated, 0 = no growth, -100 = all killed)
condition.info: 10 µM
This is part of a sample that, as a whole, favours compounds with a hit. Of some 83,000 tested, about 20% had one in any assay.
Quick reference: growth of the listed items.
Value expressed in %; do not type the unit.

Cc1nn(-c2ccccc2)c2c1N=c1s/c(=C\c3cn(-c4ccccc4)nc3-c3ccc(Cl)cc3)c(=O)n1C(C)N2 (configuration not stated): 87.8

Prompt: Requested field: growth. Item: CCNC(=O)Nc1nc2ccc(Oc3ccnc(C(=O)NC)c3)cc2s1
Completion: 87.3

Prompt: Please look up its growth: COc1ccc(C(=O)c2cc(OC)c(OC)c(OC)c2)cc1/C=C/C(=O)c1ccc(F)cc1
Completion: 98

---

System: SF-539 CNS
assay: NCI-60 one-dose screen, 48 h
condition.info: 10 µM unless noted
This is part of a sample that, as a whole, favours compounds with a hit. Of some 83,000 tested, about 20% had one in any assay. The source made the active and inactive calls. Rule for the calls: active = growth percent below 10; inactive = the rest.
Please state which outcome applies, choosing from Y for active, N for inactive

Prompt: # fetch the recorded call for CN[C@@H]1C[C@H]2O[C@@](C)([C@@H]1OC)n1c3ccccc3c3c4c(c5c6ccccc6n2c5c31)C(=O)N[C@H]4O here
Completion: Y

Prompt: Could you check what this test reported for O=C(Cc1ccc(/C=C/C(=O)c2ncc[nH]2)cc1)Nc1ccc(Br)cc1 ?
Completion: Y

Prompt: I would be grateful if you could indicate the recorded call for CC(C)(C)c1cnc(CSc2cnc(NC(=O)C3CCNCC3)s2)o1 .
Completion: Y

Prompt: Hey, what did the test say about O=C(Nc1cnn2ccc(N3CCC[C@@H]3c3cc(F)ccc3F)nc12)N1CC[C@H](O)C1 ?
Completion: N

Prompt: Status in this test for O=C1NC(=O)C(c2cnc3ccccn23)=C1c1cn2c3c(cc(F)cc13)CN(C(=O)N1CCCCC1)CC2 ?
Completion: N

Prompt: Please indicate how the test categorized Nc1nc(N)c2nc(-c3cccc(O)c3)c(-c3cccc(O)c3)nc2n1 .
Completion: N

Prompt: Name the outcome recorded for Cc1oc2c(C(=O)N/N=C\c3ccc(O)cc3O)c[nH]c2c1C in the assay.
Completion: Y

Prompt: Kindly provide the recorded test outcome for the following compound: COc1cc2c(Oc3ccc4[nH]c(C)cc4c3F)ncnc2cc1OCCCN1CCCC1
Completion: N

Prompt: // return assay outcome for COC(=O)[C@]12CC[C@@H](C)[C@H](C)[C@@H]1C1=CC[C@@H]3[C@@]4(C)C(c5cnco5)=C[C@@](C)(CO)C4=CC[C@@]3(C)[C@]1(C)CC2
Completion: N

Prompt: Check the results log: what was the call for Nc1nc(Nc2ccccc2)c(C=Nc2ccccc2)c(=O)[nH]1 ?
Completion: N

Prompt: Fill in: this test's call for COc1ccc(Cl)c(Nc2nc3ccccc3nc2NS(=O)(=O)c2cccc(NC(=O)C(C)(C)N)c2)c1 is ___
Completion: N

Prompt: Identify the outcome logged in this assay for the compound shown: COc1cc(-c2nc(C(=O)Nc3ccc(C)cc3)nn2-c2ccc(F)c(F)c2)cc(OC)c1OC
Completion: N

Prompt: Hey, what did the test say about Cc1cc(Nc2cc(N3CCN(C)CC3)nc(/C=C/c3ccccc3)n2)n[nH]1 ?
Completion: Y
